- measurement protocol: Solid state chemical stability on storage at elevated temperature and relative humidity
- Type: physicochemical
- assay conditions: solid; 60°C, 75% relative humidity, 3 days; degradation product in stored citrate salt; other products were generated in addition; read-out: mono(POC) PMPA citrate%
Structures can show the parent of a compound that is named as a salt.
measured attribute: degraded at 72 h (%)

                                   compound  measured_attribute  reported_measurement
0  CC(C)OC(=O)OCOP(=O)(CO[C@H](C)Cn1cnc2c(N)ncnc21)OCOC(=O)OC(C)C [bis(POC) PMPA citrate]    degraded at 72 h                  58.9

* * *

- measurement protocol: Solid state chemical stability on storage at elevated temperature and relative humidity
- Format: physicochemical
- assay conditions: solid; 40°C, 75% relative humidity, 14 days; degradation product in stored citrate salt; read-out: mono(POC) PMPA citrate%
Counter-ions that a name gives are not always drawn.
measured attribute: degraded at 336 h (%)

In [3]: df
Out[3]:
                                   compound  reported_measurement
0  CC(C)OC(=O)OCOP(=O)(CO[C@H](C)Cn1cnc2c(N)ncnc21)OCOC(=O)OC(C)C [bis(POC) PMPA citrate]                   3.1

* * *

- measurement protocol: Solid state chemical stability on storage at elevated temperature and relative humidity
- Assay type: physicochemical
- assay conditions: solid, 75% rh; 40°C, 75% relative humidity, 14 days; read-out: bis(POC) PMPA citrate%
Where a name gives a salt, the structure may show the parent alone.
measured attribute: remaining at 336 h (%)

>>> print(df.to_string())
                                   compound  measured_attribute  uom  reported_measurement
0  CC(C)OC(=O)OCOP(=O)(CO[C@H](C)Cn1cnc2c(N)ncnc21)OCOC(=O)OC(C)C [bis(POC) PMPA citrate]  remaining at 336 h    %                  96.9

* * *

- measurement protocol: Solid state chemical stability on storage at elevated temperature and relative humidity
- Format: physicochemical
- assay conditions: solid, 75% rh; 60°C, 75% relative humidity, 3 days; read-out: bis(POC) PMPA citrate%
Counter-ions that a name gives are not always drawn.
measured attribute: remaining at 72 h (%)

>>> print(df.to_string())
                                   molecule  reported_measurement
0  CC(C)OC(=O)OCOP(=O)(CO[C@H](C)Cn1cnc2c(N)ncnc21)OCOC(=O)OC(C)C [bis(POC) PMPA citrate]                    24

* * *

- measurement protocol: Solid state chemical stability on storage at elevated temperature and relative humidity
- Assay type: physicochemical
- assay conditions: solid; 40°C, 75% relative humidity, 30 days; degradation product in stored citrate salt; read-out: mono(POC) PMPA citrate%
Where a name gives a salt, the structure may show the parent alone.
measured attribute: degraded at 720 h (%)

>>> df
                                   compound  uom  reported_measurement
0  CC(C)OC(=O)OCOP(=O)(CO[C@H](C)Cn1cnc2c(N)ncnc21)OCOC(=O)OC(C)C [bis(POC) PMPA citrate]    %                   7.1

* * *

- measurement protocol: Solid state chemical stability on storage at elevated temperature and relative humidity
- Format: physicochemical
- assay conditions: solid, 75% rh; 40°C, 75% relative humidity, 60 days; read-out: bis(POC) PMPA citrate%
Counter-ions that a name gives are not always drawn.
measured attribute: remaining at 1440 h (%)

>>> df
                                   compound   measured_attribute  reported_measurement
0  CC(C)OC(=O)OCOP(=O)(CO[C@H](C)Cn1cnc2c(N)ncnc21)OCOC(=O)OC(C)C [bis(POC) PMPA citrate]  remaining at 1440 h                  77.6
